Structures can show the parent of a compound that is named as a salt.
Property: melting point; scope: individual compounds

{"compound": "C=CCNc1nc(NCCN)nc2ccc([N+](=O)[O-])cc12 [Example 20]", "melting point": "126 to 128 °C"}
{"compound": "C=CCNc1nc(NC(C)CC)c2cc([N+](=O)[O-])ccc2n1 (stereo not drawn) (as salt: hydrochloride) [Example 49]", "melting point": "176 to 177 °C"}
{"compound": "C=CCNc1nc(NC(=O)C(C)(C)C)c2scc(C)c2n1 [Example 90]", "melting point": "88 to 89 °C"}
{"compound": "C=CCNc1nc(NC(C)=O)nc2ccc([N+](=O)[O-])cc12 [Example 44]", "melting point": "239 to 240 °C"}
{"compound": "C=CCNc1nc(NCC=C)c2scc(C)c2n1 [Example 66]", "melting point": "77 to 80 °C"}
{"compound": "C=CCNc1nc(NC(=O)OCC(C)C)c2cc([N+](=O)[O-])ccc2n1 [Example 43]", "melting point": "148 to 149 °C"}
{"compound": "C=CCNc1nc(NC)c2cc([N+](=O)[O-])ccc2n1 [Example 21]", "melting point": "211 to 212 °C"}
{"compound": "C=CCNc1nc(NC23CC4CC(CC(C4)C2)C3)c2cc([N+](=O)[O-])ccc2n1 [Example 52]", "melting point": "224 to 225 °C"}
{"compound": "C=CCNc1nc(N(CC=C)CC=C)nc2ccc(Cl)cc12 [Example 15]", "melting point": "73 to 74 °C"}
{"compound": "C=CC(C)Nc1nc(NC(C)C=C)c2cc([N+](=O)[O-])ccc2n1 (stereo not drawn) [Example 64]", "melting point": "122 to 125 °C"}
{"compound": "C=CCNc1nc(NCC=C)c2scc(CC)c2n1 [Example 103]", "melting point": "55 °C"}
{"compound": "C=CCNc1nc(NC2CCCCC2)nc2ccc([N+](=O)[O-])cc12 [Example 7]", "melting point": "183 to 184 °C"}
{"compound": "C=CCNc1nc(NCC(F)(F)F)c2cc([N+](=O)[O-])ccc2n1 [Example 55]", "melting point": "215 to 216 °C"}
{"compound": "C=CCNc1nc(NCC=C(C)C)c2cc([N+](=O)[O-])ccc2n1 [Example 59]", "melting point": "209 to 210 °C"}
{"compound": "C=CCNc1nc(NCC)c2cc([N+](=O)[O-])ccc2n1 [Example 22]", "melting point": "215 to 216 °C"}
{"compound": "C=CCNc1nc(NC(=O)N2CCCC2)c2scc(C)c2n1 [Example 98]", "melting point": "98 to 101 °C"}
{"compound": "C=CCNc1nc(NC/C=C/C)nc2ccc([N+](=O)[O-])cc12 [Example 30]", "melting point": "188 to 189 °C"}
{"compound": "C=CCNc1nc(NC(=O)NC(C)(C)C)c2scc(C)c2n1 (as salt: hydrochloride)", "melting point": "192 to 194 °C"}

Origin of measurements: patent US20010006969A1
